Test system: HL-1
assay: relative cell viability (CellTiter-Glo) vs DMSO control (% of DMSO control); higher = more viable cells
conditionContext: oxygen condition: normoxia 72 h; 40 nM
Where a name gives a salt, the structure may show the parent alone.
valueKind: relative cell viability

C#CCN[C@@H]1CCc2ccccc21 [Rasagiline mesylate]; 93.3
CCOC(=O)[C@H](CCc1ccccc1)N[C@@H](C)C(=O)N1CCC[C@H]1C(=O)O [Enalapril maleate]; 98.5
CCCCc1oc2ccccc2c1C(=O)c1cc(I)c(OCCN(CC)CC)c(I)c1 [Amiodarone HCl]; 102
CC1(C)[C@@H](OC(=O)CCC(=O)O)CC[C@]2(C)[C@H]3C(=O)C=C4[C@@H]5C[C@@](C)(C(=O)O)CC[C@]5(C)CC[C@@]4(C)[C@]3(C)CC[C@@H]12 [Carbenoxolone Sodium]; 93.6
NC[C@H](O)c1ccc(O)c(O)c1 [Noradrenaline bitartrate monohydrate]; 98.9
Cc1nc2n(c(=O)c1CCN1CCC(c3noc4cc(F)ccc34)CC1)CCCC2; 104
CNC[C@@H](O)c1ccc(O)c(O)c1; 100
CCOC(=O)[C@H](CCc1ccccc1)N[C@H]1CCCN2CCC[C@@H](C(=O)O)N2C1=O [Cilazapril monohydrate]; 105
O=c1oc2c(O)c(O)cc3c(=O)oc4c(O)c(O)cc1c4c23; 101

###

Test system: HL-1
assay: relative cell viability (CellTiter-Glo) vs DMSO control (% of DMSO control); higher = more viable cells
conditionContext: oxygen condition: normoxia 72 h; 5000 nM
Field 'label' (enum: 1 / 0). Set to 1 when relative cell viability is strictly under 100; else 0.

CN1CCN(CCCN2c3ccccc3Sc3ccc(C(F)(F)F)cc32)CC1 [Trifluoperazine 2HCl]; 0
CCCCC(=O)N(Cc1ccc(-c2ccccc2-c2nnn[nH]2)cc1)[C@H](C(=O)O)C(C)C; 1
CCC(=O)O[C@@H](O[P@](=O)(CCCCc1ccccc1)CC(=O)N1C[C@H](C2CCCCC2)C[C@H]1C(=O)O)C(C)C [Fosinopril sodium]; 0
O=C(CCCN1CC=C(n2c(=O)[nH]c3ccccc32)CC1)c1ccc(F)cc1; 0
Nc1nnc(-c2cccc(Cl)c2Cl)c(N)n1; 0
CN(CCOc1ccc(NS(C)(=O)=O)cc1)CCc1ccc(NS(C)(=O)=O)cc1 [Dofetilide]; 0

###

Overview of reported relative cell viability across a group of compounds:
Test system: HL-1
assay: relative cell viability (CellTiter-Glo) vs DMSO control (% of DMSO control); higher = more viable cells
conditionContext: oxygen condition: normoxia 72 h; 5000 nM
Structures can show the parent of a compound that is named as a salt.
valueKind: relative cell viability

C[C@]12CCC3=C4CCC(=O)C=C4CC[C@H]3[C@@H]1CC[C@@]2(O)CC#N; 107
CC(C)(Sc1cc(C(C)(C)C)c(O)c(C(C)(C)C)c1)Sc1cc(C(C)(C)C)c(O)c(C(C)(C)C)c1; 112
NS(=O)(=O)c1cc2c(cc1C(F)(F)F)NC(Cc1ccccc1)NS2(=O)=O (centres undefined) [Bendroflumethiazide]; 110
CC(C)(CO)[C@@H](O)C(=O)NCCC(=O)O; 106
CN(C)C/C=C/C(=O)Nc1cc2c(Nc3ccc(F)c(Cl)c3)ncnc2cc1O[C@H]1CCOC1; 17.6
C[C@@H]1CC(=O)NN=C1c1ccc(NN=C(C#N)C#N)cc1; 103
CN(c1nccc(=O)[nH]1)C1CCN(c2nc3ccccc3n2Cc2ccc(F)cc2)CC1; 107
CCCC(CCC)C(=O)O [Valproic acid sodium salt]; 111
O=P(O)(O)C(O)(Cn1ccnc1)P(=O)(O)O; 109

###

Overview of reported relative cell viability across a group of compounds:
System: HL-1
assay: relative cell viability (CellTiter-Glo) vs DMSO control (% of DMSO control); higher = more viable cells
conditionContext: oxygen condition: normoxia 72 h; 200 nM
Structures can show the parent of a compound that is named as a salt.
valueKind: relative cell viability

C=C[C@]1(C)C[C@@H](OC(=O)CS[C@@H]2C[C@H]3CC[C@@H](C2)N3C)[C@]2(C)[C@H](C)CC[C@]3(CCC(=O)[C@H]32)[C@@H](C)[C@@H]1O [Retapamulin]; 97.1
CNC(=O)CN(CCN(CCN(CC(=O)[O-])CC(=O)NC)CC(=O)[O-])CC(=O)[O-].[Gd+3] [Gadodiamide]; 98.8
CN1[C@@H]2CC[C@H]1C[C@@H](OC(=O)c1c[nH]c3ccccc13)C2 [Tropisetron]; 101
CCOC(=O)[C@H](CCc1ccccc1)N[C@@H](C)C(=O)N1C(=O)N(C)C[C@H]1C(=O)O [Imidapril]; 103
CNCCCC12CCC(c3ccccc31)c1ccccc12 [Maprotiline hydrochloride]; 102
NS(=O)(=O)c1cc2c(cc1C(F)(F)F)NC(Cc1ccccc1)NS2(=O)=O (stereo unspecified) [Bendroflumethiazide]; 100
NCCCC[C@H](N[C@@H](CCc1ccccc1)C(=O)O)C(=O)N1CCC[C@H]1C(=O)O [Lisinopril]; 94.7
CC[C@H]1OC(=O)[C@H](C)[C@@H](O[C@H]2C[C@@](C)(OC)[C@@H](O)[C@H](C)O2)[C@H](C)[C@@H](O[C@@H]2O[C@H](C)C[C@H](N(C)C)[C@H]2O)[C@](C)(O)C[C@@H](C)/C(=N\OCOCCOC)[C@H](C)[C@@H](O)[C@]1(C)O [Roxithromycin]; 100
Nc1nc(Cl)nc2c1ncn2[C@H]1C[C@H](O)[C@@H](CO)O1 [Cladribine]; 21.9
C[C@]12CC[C@@H]3c4ccc(O)cc4CC[C@H]3[C@@H]1CCC2=O [Estrone]; 105
COCCCOc1cc(C[C@@H](C[C@H](N)[C@@H](O)C[C@H](C(=O)NCC(C)(C)C(N)=O)C(C)C)C(C)C)ccc1OC [Aliskiren hemifumarate]; 102
O=C(O)C(=O)O.[NH-][C@@H]1CCCC[C@H]1[NH-].[Pt+2] [Oxaliplatin]; 107
CCN1CCCC1CNC(=O)c1cc(S(=O)(=O)CC)c(N)cc1OC (stereo unspecified) [Amisulpride]; 107
N[C@@H]1CCCCN(c2c(F)cc3c(=O)c(C(=O)O)cn(C4CC4)c3c2Cl)C1 [Besifloxacin HCl]; 99.5
S=c1[nH]cnc2nc[nH]c12 [Mercaptopurine]; 103
C[C@@H]1CC(=O)NN=C1c1ccc(NN=C(C#N)C#N)cc1 [Levosimendan]; 103
CCCC(CCC)C(=O)O [Valproic acid sodium salt]; 111
Nc1ccn([C@@H]2O[C@H](CO)[C@@H](O)[C@@H]2O)c(=O)n1 [Cytarabine]; 64.3
O=NN(CCCl)C(=O)NC1CCCCC1 [Lomustine]; 96.2
C[N+]1(C)CCC(=C(c2ccccc2)c2ccccc2)CC1 [Diphemanil methylsulfate]; 104
C=C1/C(=C\C=C2/CCC[C@]3(C)[C@@H]([C@H](C)/C=C/[C@H](C)C(C)C)CC[C@@H]23)C[C@@H](O)C[C@@H]1O [Doxercalciferol]; 99
CCOc1nc2cccc(C(=O)O)c2n1Cc1ccc(-c2ccccc2-c2noc(=O)[nH]2)cc1 [Azilsartan]; 110
N[C@@H]1CN(c2c(F)cc3c(=O)c(C(=O)O)cn([C@@H]4C[C@@H]4F)c3c2Cl)CC12CC2 [Sitafloxacin hydrate]; 95.3
CC(C)(C(=O)O)c1ccc(C(O)CCCN2CCC(C(O)(c3ccccc3)c3ccccc3)CC2)cc1 (stereo unspecified) [Fexofenadine HCl]; 96.2
CCOc1nc2cccc(C(=O)OCc3oc(=O)oc3C)c2n1Cc1ccc(-c2ccccc2-c2noc(=O)[nH]2)cc1 [Azilsartan Medoxomil]; 103
C#C[C@]1(OC(C)=O)CC[C@H]2[C@@H]3CCC4=C[C@@H](OC(C)=O)CC[C@@H]4[C@H]3CC[C@@]21C [Ethynodiol diacetate]; 110
Clc1ccc(COC(Cn2ccnc2)c2ccc(Cl)cc2Cl)c(Cl)c1 (stereo unspecified) [Miconazole]; 101
CC(C)NCC(O)COc1ccc(COCCOC(C)C)cc1 (stereo unspecified) [Bisoprolol]; 101
C[N+](C)(C)CCCCCC[N+](C)(C)C [Hexamethonium bromide]; 96.6
NC(N)=Nc1nc(CSCC/C(N)=N/S(N)(=O)=O)cs1 [Famotidine]; 101
CCOc1cc(N)c(Cl)cc1C(=O)NCC1CN(Cc2ccc(F)cc2)CCO1 (stereo unspecified) [Mosapride citrate]; 109

###

Overview of reported relative cell viability across a group of molecules:
System: HL-1
assay: relative cell viability (CellTiter-Glo) vs DMSO control (% of DMSO control); higher = more viable cells
conditionContext: oxygen condition: hypoxia 48 h (1% O2) + reoxygenation 24 h; 1000 nM
Where a name gives a salt, the structure may show the parent alone.
valueKind: relative cell viability

COc1ccc2[nH]c([S+]([O-])Cc3ncc(C)c(OC)c3C)nc2c1 (stereo unspecified); 107
CN(C)CCC(c1ccc(Cl)cc1)c1ccccn1 (stereo unspecified) [Chlorpheniramine Maleate]; 98.4
Cn1nnc2c(C(N)=O)ncn2c1=O; 111
O=C1N=C(O)NC1(c1ccccc1)c1ccccc1 [Phenytoin sodium]; 95.6
COC(=O)C1=C(C)NC(C)=C(C(=O)OCC(C)C)C1c1ccccc1[N+](=O)[O-] (stereo unspecified); 107
Cc1ccc(NC(=O)c2ccc(CN3CCN(C)CC3)cc2)cc1Nc1nccc(-c2cccnc2)n1 [Imatinib Mesylate]; 136
CN1CC(=O)NC1=N; 106
Cc1onc(-c2ccccc2)c1C(=O)N[C@@H]1C(=O)N2[C@@H]1SC(C)(C)[C@@H]2C(=O)O [Oxacillin sodium monohydrate]; 96.5
Nc1ncnc2c1ncn2[C@@H]1O[C@H](CO)[C@@H](O)[C@H]1O; 113
CC[C@H](C)[C@H](N)C1=N[C@H](C(=O)N[C@@H](CC(C)C)C(=O)N[C@H](CCC(=O)[O-])C(=O)N[C@H](C(=O)N[C@H]2CCCCNC(=O)[C@H](CC(N)=O)NC(=O)[C@@H](CC(=O)[O-])NC(=O)[C@H](Cc3cnc[nH]3)NC(=O)[C@@H](Cc3ccccc3)NC(=O)[C@H]([C@@H](C)CC)NC(=O)[C@@H](CCCN)NC2=O)[C@@H](C)CC)CS1.[Zn+2]; 109
CC(Oc1c(Cl)cccc1Cl)C1=NCCN1 (stereo unspecified) [Lofexidine HCl]; 99.6
O=C(CCCN1CCN(c2ccccn2)CC1)c1ccc(F)cc1; 102
NCCCCCC(=O)O; 106
CC(CCc1ccc(O)cc1)NCC(O)c1ccc(O)cc1 (stereo unspecified) [Ractopamine HCl]; 108
CCOC(=O)C1=C(COCCN)NC(C)=C(C(=O)OC)C1c1ccccc1Cl (stereo unspecified) [Amlodipine]; 113
CCCCC1C(=O)N(c2ccccc2)N(c2ccccc2)C1=O; 93.3
CC1=NN(c2ccc(C)c(C)c2)C(=O)/C1=N\Nc1cccc(-c2cccc(C(=O)O)c2)c1O; 109
O=P(O)(O)C(O)(Cn1ccnc1)P(=O)(O)O; 100
C=CC[C@@H]1/C=C(\C)C[C@H](C)C[C@H](OC)[C@H]2O[C@@](O)(C(=O)C(=O)N3CCCC[C@H]3C(=O)O[C@H](/C(C)=C/[C@@H]3CC[C@@H](O)[C@H](OC)C3)[C@H](C)[C@@H](O)CC1=O)[C@H](C)C[C@@H]2OC; 102
O=C1C(O)=C([C@H]2CC[C@H](c3ccc(Cl)cc3)CC2)C(=O)c2ccccc21; 113
N#Cc1ccc(C(c2ccc(C#N)cc2)n2cncn2)cc1; 109
COC(=O)CCc1ccc(OCC(O)CNC(C)C)cc1 (stereo unspecified) [Esmolol HCl]; 105
CC[C@@H]1/C=C(\C)C[C@H](C)C[C@H](OC)[C@H]2O[C@@](O)(C(=O)C(=O)N3CCCC[C@H]3C(=O)O[C@H](/C(C)=C/[C@@H]3CC[C@H](Cl)[C@H](OC)C3)[C@H](C)[C@@H](O)CC1=O)[C@H](C)C[C@@H]2OC; 101
CC12CC3CC(C)(C1)CC(N)(C3)C2 [Memantine HCl]; 101
Cc1ccc(C(=O)C(C)CN2CCCCC2)cc1 (stereo unspecified) [Tolperisone HCl]; 109
NCC(=O)CCC(=O)O [5-Aminolevulinic acid hydrochloride]; 105
C=C1/C(=C\C=C2/CCC[C@]3(C)[C@@H]([C@H](C)CCCC(C)(C)O)CC[C@@H]23)C[C@@H](O)C[C@@H]1O; 92.9
CCN[C@H]1C[C@H](C)S(=O)(=O)c2sc(S(N)(=O)=O)cc21 [Dorzolamide HCL]; 104
COCCOC(=O)C1=C(C)NC(C)=C(C(=O)OC(C)C)C1c1cccc([N+](=O)[O-])c1 (stereo unspecified); 109
CN1CCN(C2=Nc3cc(Cl)ccc3Nc3ccccc32)CC1; 105
CCC1=C(C)CN(C(=O)NCCc2ccc(S(=O)(=O)NC(=O)N[C@H]3CC[C@H](C)CC3)cc2)C1=O [Glimepiride]; 95.2
